Ref: patent US6759207B2

# Assay system: recombinant ICE (Homo sapiens, UniProt P29466)
# Construct: made in house; host or cells: Sf9 insect cells, baculovirus vector
# Sequence (P29466 120-297 limits assumed): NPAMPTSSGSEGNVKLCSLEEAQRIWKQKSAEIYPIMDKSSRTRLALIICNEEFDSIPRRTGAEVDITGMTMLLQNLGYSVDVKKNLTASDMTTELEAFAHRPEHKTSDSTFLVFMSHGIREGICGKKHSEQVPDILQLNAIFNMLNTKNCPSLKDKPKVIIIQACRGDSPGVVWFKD
# Sequence (P29466 317-404 limits assumed): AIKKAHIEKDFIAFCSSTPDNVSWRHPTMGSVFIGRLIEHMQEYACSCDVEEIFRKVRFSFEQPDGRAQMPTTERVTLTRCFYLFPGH
# Protocol details: Fluorometric enzyme assay, cleavage of substrate by recombinant ICE
# Format: biochemical
# Condition info: 1-100 μM substrate, 37° C.; NA = no activity observed at 1-100 μM substrate, 3 h incubation
Readout name: Km (µM)
Respond numerically; units are µM and should not be typed.

Example results:
# Compound, Km [µM]
measured = [
    ("CC(=O)Nc1ccc2c(c1)Oc1cc(NC(=O)C(CC(=O)O)NC(=O)C(C)NC(=O)C(NC(=O)OCc3ccccc3)C(C)C)ccc1C21OC(=O)c2ccccc21 (centres unmarked) [N-(Z-VAD)-N′-Ac-Rhodamine 110]", 70),
    ("CC(=O)Nc1ccc2c(c1)Oc1cc(NC(=O)[C@H](CC(=O)O)NC(=O)[C@H](C)NC(=O)[C@@H](NC(=O)[C@H](Cc3ccc(O)cc3)NC(=O)OCc3ccccc3)C(C)C)ccc1C21OC(=O)c2ccccc21 (some centres unmarked) [N-(Z-YVAD)-N′-Ac-Rhodamine 110]", 32),
    ("CC(C)[C@H](NC(=O)OCc1ccccc1)C(=O)N[C@@H](C)C(=O)N[C@@H](CC(=O)O)C(=O)Nc1ccc2c(c1)Oc1cc(NC(=O)[C@H](CC(=O)O)NC(=O)[C@H](C)NC(=O)[C@@H](NC(=O)OCc3ccccc3)C(C)C)ccc1C21OC(=O)c2ccccc21 [(Z-VAD)2-Rhodamine 110, (Z-Val-Ala-Asp)2-Rhodamine 110]", 21),
]

Which Km is listed for CC(C)[C@H](NC(=O)[C@H](Cc1ccc(O)cc1)NC(=O)OCc1ccccc1)C(=O)N[C@@H](C)C(=O)N[C@@H](CC(=O)O)C(=O)Nc1ccc2c(c1)Oc1cc(NC(=O)[C@H](CC(=O)O)NC(=O)[C@H](C)NC(=O)[C@@H](NC(=O)[C@H](Cc3ccc(O)cc3)NC(=O)OCc3ccccc3)C(C)C)ccc1C21OC(=O)c2ccccc21 [(Z-YVAD)2-Rhodamine 110, (Z-Tyr-Val-Ala-Asp)2-Rhodamine 110] ?
6

Which Km is listed for CC(=O)Nc1ccc2c(c1)Oc1cc(NC(=O)[C@H](CC(=O)O)NC(=O)[C@@H](NC(=O)[C@H](CCC(=O)O)NC(=O)[C@H](CC(=O)O)NC(=O)OCc3ccccc3)C(C)C)ccc1C21OC(=O)c2ccccc21 (some centres unmarked) [N-(Z-DEVD)-N′-Ac-Rhodamine 110] ?
12
